quantity.measured: melting point (°C)

[
  {
    "test.smiles": "c1ccc(-c2n[nH]cc2-c2ccnc(Nc3ccc(OCCN4CCCC4)cc3)c2)nc1",
    "uom": "°C",
    "melting point": 224
  },
  {
    "test.smiles": "c1ccc(-c2n[nH]cc2-c2ccnc(NCc3ccco3)c2)nc1",
    "uom": "°C",
    "melting point": 200
  },
  {
    "test.smiles": "COc1cc(Nc2cc(-c3c[nH]nc3-c3ccccn3)ccn2)ccc1C#N",
    "uom": "°C",
    "melting point": 280
  },
  {
    "test.smiles": "N#Cc1cc(Nc2cc(-c3c[nH]nc3-c3ccccn3)ccn2)ccc1Cl",
    "uom": "°C",
    "melting point": 250
  },
  {
    "test.smiles": "N#Cc1cccc(Nc2cc(-c3c[nH]nc3-c3ccccn3)ccn2)c1",
    "uom": "°C",
    "melting point": 228
  },
  {
    "test.smiles": "Clc1cccc(Nc2cc(-c3c[nH]nc3-c3ccccn3)ccn2)c1",
    "uom": "°C",
    "melting point": 205
  },
  {
    "test.smiles": "c1ccc(-c2n[nH]cc2-c2ccnc(Nc3ccc(OCCN4CCCCC4)cc3)c2)nc1",
    "uom": "°C",
    "melting point": 176
  },
  {
    "test.smiles": "CC(C)Oc1cccc(Nc2cc(-c3c[nH]nc3-c3ccccn3)ccn2)c1",
    "uom": "°C",
    "melting point": 218
  },
  {
    "test.smiles": "FC(F)(F)c1ccc(Nc2cc(-c3c[nH]nc3-c3ccccn3)ccn2)cc1",
    "uom": "°C",
    "melting point": 207
  }
]

---

quantity.measured: melting point (°C)

P = Fc1ccc(Nc2cc(-c3c[nH]nc3-c3ccccn3)ccn2)cc1
Q = FC(F)(F)Oc1cccc(Nc2cc(-c3c[nH]nc3-c3ccccn3)ccn2)c1
Incoming: Which entry shows the lesser value of melting point here, P or Q ? Reply briefly: the label of your chosen item.
Outgoing: Q
(Q: 102.8 °C, P: 200 °C)

P = CS(=O)(=O)c1cccc(Nc2cc(-c3c[nH]nc3-c3ccccn3)ccn2)c1
Q = COc1ccc(Nc2cc(-c3c[nH]nc3-c3ccccn3)ccn2)cc1
Incoming: Between the entries labelled P and Q , which has a larger melting point value on record? Please indicate the selected item by its label.
Outgoing: Q

I = Cc1cccc(Nc2cc(-c3c[nH]nc3-c3ccccn3)ccn2)c1
II = COc1cc(Nc2cc(-c3c[nH]nc3-c3cccc(C)n3)ccn2)ccc1C#N
Incoming: Compare reported melting point values for I and II . Which is lower? Pick one; state its label.
Outgoing: II
(II: 125 °C, I: 194 °C)

1 = Cc1ccc(Nc2cc(-c3c[nH]nc3-c3ccccn3)ccn2)cc1
2 = c1ccc(-c2n[nH]cc2-c2ccnc(Nc3cccc(OCCN4CCCC4)c3)c2)nc1
Incoming: Hey, which is lower on measured melting point, 1 or 2 ? # reply format: chosen label
Outgoing: 2

A = O=C(c1ccc(Nc2cc(-c3c[nH]nc3-c3ccccn3)ccn2)cc1)N1CCOCC1
B = CS(=O)(=O)c1ccc(Nc2cc(-c3c[nH]nc3-c3ccccn3)ccn2)cc1
Incoming: Which of the two items, A and B , has the greater recorded melting point? Which one? Tell me its label.
Outgoing: A
(A: 240 °C, B: 134 °C)

1 = CN1CCN(C(=O)c2ccc(Nc3cc(-c4c[nH]nc4-c4ccccn4)ccn3)cc2)CC1
2 = c1ccc(-c2n[nH]cc2-c2ccnc(Nc3cccc(OCCN4CCCCC4)c3)c2)nc1
Incoming: Compare 1 and 2 and name the one whose reported melting point is smaller. When you have decided, please share the label of that item.
Outgoing: 2

1 = Cc1cc(Nc2cc(-c3c[nH]nc3-c3ccccn3)ccn2)ccc1Cl
2 = Cn1ccnc1COc1cccc(Nc2cc(-c3c[nH]nc3-c3ccccn3)ccn2)c1
Incoming: Could you tell me which of 1 and 2 has the lower melting point reading? Label of pick, please.
Outgoing: 2
